test: Contact lens uptake: content left in solution after shaking with lenses; type: physicochemical; settings: 15 ml solution, 2 Acuvue lenses, closed system shaken 6 days at room temperature; Myristylamine with TPGS 20 fold
Assay readout: remaining content left in solution, Acuvue (ppm)
Field: numeric (ppm). Do not append units.

Here are 3 compounds together with their reported answers.
CCCCCCCCCCCCN [Dodecylamine, reference compound] = 35.0
CCCCCCCCCCCCCC(=O)NCCCN(C)C [Myristylamidopropyl-dimethylamine] = 18.2
CCCCCCCCCCCCCCCC[n+]1ccccc1 [Cetylpyridinium Chloride, reference compound] = 3.3

Now look at this entry.
Query block: Any idea what remaining content left in solution, Acuvue was measured for CCCCCCCCCCCCCCN [Myristylamine] ?
Result block: 34.1

---

assay: Contact lens uptake: content left in solution after shaking with lenses; format: physicochemical; settings: 15 ml solution, 2 Purevision lenses, closed system shaken 6 days at room temperature; Myristylamine with TPGS 20 fold
Collected remaining content left in solution, Purevision values appear next to each entry.
# number only, unit ppm dropped from output

CCCCCCCCCCCCCCN [Myristylamine] = 13.0
CCCCCCCCCCCCN [Dodecylamine, reference compound] = 14.1
CCCCCCCCCCCCCC(=O)NCCCN(C)C [Myristylamidopropyl-dimethylamine] = 4.7

Kindly review the next compound as well.
Query block: Value lookup for remaining content left in solution, Purevision; key = CCCCCCCCCCCCCCCC[n+]1ccccc1 [Cetylpyridinium Chloride, reference compound]
Result block: 1.3

---

test: Contact lens uptake: content left in solution after shaking with lenses; assay type: physicochemical; details: 15 ml system without lenses, shaken 6 days at room temperature; Myristylamine with TPGS 20 fold
Assay readout: remaining content left in solution, Without Lens (ppm)
Write the value in ppm as a bare number.

CCCCCCCCCCCCN [Dodecylamine, reference compound] = 44.4
CCCCCCCCCCCCCC(=O)NCCCN(C)C = 43.5
CCCCCCCCCCCCCCCC[n+]1ccccc1 [Cetylpyridinium Chloride, reference compound] = 42.7

Continue with the molecule presented below.
Query block: Quick one: remaining content left in solution, Without Lens of CCCCCCCCCCCCCCN ?
Result block: 37.9
